- Test System: Anti-estrogen binding site (AEBS) (Homo sapiens) (UniProt Q15125+Q9UBM7)
- Procedure Text: Relative binding affinity(RBA) against AEBS (Antiestrogen binding site) in rat liver
- Type: functional, tissue-based
- Assay Context: target entry is the homologue from another species
Assay Metric: relative binding affinity (RBA)

The examples below pair each entry with its known result.
>  <Compound>
CCN(CC)CCOc1ccc(C(C)(C)C)cc1

>  <relative binding affinity (RBA)>
0.08

$$$$
>  <Compound>
CCN(CC)CCOc1cccc(C(=C2CCCCC2)c2cccc(O)c2)c1

>  <relative binding affinity (RBA)>
6

$$$$
>  <Compound>
COc1ccc2c(-c3ccc(OCCN4CCCC4)cc3)c(-c3ccccc3)oc2c1

>  <relative binding affinity (RBA)>
23

$$$$

(P) CC/C(=C(\c1ccccc1)c1ccc(OCCN2CCOCC2)cc1)c1ccccc1
(Q) CN(C)CCOc1cccc(C(=C2CCCCC2)c2cccc(O)c2)c1
(R) CN(C)CCOc1ccc(C2Oc3ccccc3C=C2c2ccccc2)cc1 (stereo unspecified)
[ask] # ascending order, key=relative binding affinity (RBA) To answer, write out the labels according to the requested order.
[reply] Q, R, P
(Q: 17, R: 98, P: 1170)
